test: physchem; details: water
readout-kind: solubility (µg/mL)
Numbers only, in µg/mL.

Entry under test: COc1cc(NS(C)(=O)=O)ccc1Nc1c2ccccc2nc2ccccc12 [Example 1, L(+)-Monolactate Hemiacetonate of m-AMSA] . Its solubility was 5000
